Reference source: ChEMBL document CHEMBL5724914

- recorded conditions: human gut metagenome, 24 h, 2 µM; note: call rule not given here

>  <compound>
O=P1(N(CCCl)CCCl)NCCCO1 (configuration not stated) [CYCLOPHOSPHAMIDE ANHYDROUS]

>  <Bacterial Biotransformation>
Compound NOT metabolized

$$$$
>  <compound>
OC(c1cc(C(F)(F)F)nc2c(C(F)(F)F)cccc12)C1CCCCN1 (configuration not stated) [MEFLOQUINE]

>  <Bacterial Biotransformation>
Compound NOT metabolized

$$$$
>  <compound>
CC(=O)O[C@]1(C(C)=O)CC[C@H]2[C@@H]3C=C(C)C4=CC(=O)CC[C@]4(C)[C@H]3CC[C@@]21C [MEGESTROL ACETATE]

>  <Bacterial Biotransformation>
Compound metabolized

$$$$
>  <compound>
C=CC[C@@H]1/C=C(\C)C[C@H](C)C[C@H](OC)[C@H]2O[C@@](O)(C(=O)C(=O)N3CCCC[C@H]3C(=O)O[C@H](/C(C)=C/[C@@H]3CC[C@@H](O)[C@H](OC)C3)[C@H](C)[C@@H](O)CC1=O)[C@H](C)C[C@@H]2OC.O [TACROLIMUS]

>  <Bacterial Biotransformation>
Compound metabolized

$$$$
>  <compound>
COc1cc(C(=O)NCc2ccc(OCCN(C)C)cc2)cc(OC)c1OC [TRIMETHOBENZAMIDE]

>  <Bacterial Biotransformation>
Compound NOT metabolized

$$$$
>  <compound>
Nc1nnc(-c2cccc(Cl)c2Cl)c(N)n1 [LAMOTRIGINE]

>  <Bacterial Biotransformation>
Compound NOT metabolized

$$$$
>  <compound>
N#Cc1ccc2c(c1)N(CCCN1CCC(O)CC1)c1ccccc1S2 [PERICIAZINE]

>  <Bacterial Biotransformation>
Compound NOT metabolized

$$$$

----------
- recorded conditions: human gut metagenome, 24 h, 2 µM

>  <compound>
Cc1cc2c(s1)Nc1ccccc1N=C2N1CCN(C)CC1

>  <Bacterial Biotransformation>
Compound metabolized

$$$$
>  <compound>
CC(=O)Oc1ccc(C(c2ccc(OC(C)=O)cc2)c2ccccn2)cc1

>  <Bacterial Biotransformation>
Compound metabolized

$$$$
>  <compound>
CCN(CC)CCOC(=O)C1(C2CCCCC2)CCCCC1

>  <Bacterial Biotransformation>
Compound NOT metabolized

$$$$
>  <compound>
OCCN(CCO)c1nc(N2CCCCC2)c2nc(N(CCO)CCO)nc(N3CCCCC3)c2n1

>  <Bacterial Biotransformation>
Compound NOT metabolized

$$$$
>  <compound>
CN1[C@@H]2CC[C@H]1C[C@@H](OC(=O)c1c[nH]c3ccccc13)C2

>  <Bacterial Biotransformation>
Compound NOT metabolized

$$$$
>  <compound>
CN1CCN(C2=Nc3ccccc3Oc3ccc(Cl)cc32)CC1.O=C(O)CCC(=O)O [LOXAPINE SUCCINATE]

>  <Bacterial Biotransformation>
Compound NOT metabolized

$$$$
>  <compound>
COCCCC/C(=N\OCCN)c1ccc(C(F)(F)F)cc1.O=C(O)/C=C\C(=O)O [FLUVOXAMINE MALEATE]

>  <Bacterial Biotransformation>
Compound NOT metabolized

$$$$

----------
- recorded conditions: human gut metagenome, 24 h, 2 µM

>  <molecule>
CCN(CC)CCOC(=O)C1(C2CCCCC2)CCCCC1

>  <Bacterial Biotransformation>
Compound metabolized

$$$$
>  <molecule>
CC(C)c1c(CN(C)C(C)Cc2ccccc2)n(C)n(-c2ccccc2)c1=O (configuration not stated)

>  <Bacterial Biotransformation>
Compound metabolized

$$$$
>  <molecule>
CC(N)C12CC3CC(CC(C3)C1)C2 (configuration not stated)

>  <Bacterial Biotransformation>
Compound NOT metabolized

$$$$
>  <molecule>
Cc1ccccc1C(OCCN(C)C)c1ccccc1.O=C(O)CC(O)(CC(=O)O)C(=O)O (configuration not stated) [ORPHENADRINE CITRATE]

>  <Bacterial Biotransformation>
Compound NOT metabolized

$$$$
>  <molecule>
CC(C)c1nc(N(C)S(C)(=O)=O)nc(-c2ccc(F)cc2)c1/C=C/[C@@H](O)C[C@@H](O)CC(=O)[O-].CC(C)c1nc(N(C)S(C)(=O)=O)nc(-c2ccc(F)cc2)c1/C=C/[C@@H](O)C[C@@H](O)CC(=O)[O-].[Ca+2]

>  <Bacterial Biotransformation>
Compound metabolized

$$$$
>  <molecule>
C#C[C@]1(OC(C)=O)CC[C@H]2[C@@H]3CCC4=C[C@@H](OC(C)=O)CC[C@@H]4[C@H]3CC[C@@]21C [ETHYNODIOL DIACETATE]

>  <Bacterial Biotransformation>
Compound metabolized

$$$$
>  <molecule>
CC12CC3CC(C)(C1)CC(N)(C3)C2 [MEMANTINE]

>  <Bacterial Biotransformation>
Compound NOT metabolized

$$$$
